target: T1, Recombinant human TSLP-his (human, UniProt Q969D9 29-159); assay: SPR, Biacore T200; protocol of Example 2
T1 construct: Prepared in-house; Amine-coupled to CM5 chip in SPR, loaded on APS sensors in Octet, biotin-labeled in the capture ELISA, unlabeled in the cell functional assays; also called human TSLP-his protein
reported endpoint: kon (M⁻¹ s⁻¹)
Reply numerically in M⁻¹ s⁻¹, unit not repeated.

Which value of kon has been reported for hu1C5F12E9-V17 (antibody, human IgG4 S228P, kappa, V domains shown) VH: QVQLVQSGAEVKKPGASVKVSCKASGYTFTTYWMHWVRQAPGQGLEWMGVIDPSDSDTTYNQKFKGKATMTRDTSTSTVYMELSSLRSEDTAVYYCTRSLDGYYDYWGQGTLVTVSS VL: DIQMTQSPSSLSASVGDRVTITCRPTENIYSYLAWYQQKPGKSPKLLIYFARTLAEGVPSRFSGSGSGTDFTLTISSLQPEDFATYYCQHHYGTPWTFGGGTKVEIKR in the records?
110000

Which value of kon has been reported for hu1C5F12E9-V12 (antibody, human IgG4 S228P, kappa, V domains shown) VH: QVQLVQSGAEVKKPGASVKVSCKASGYTFTTYWMHWVRQAPGQGLEWMGVIDPSDSDTTYNQKFKGKATMTVDTSTSTVYMELSSLRSEDTAVYYCTRSLDGYYDYWGQGTLVTVSS VL: DIQMTQSPSSLSASVGDRVTITCRPTENIYSYLAWYQQKPGKAPKLLIYFARTLAEGVPSRFSGSGSGTDFTLTISSLQPEDFATYYCQHHYGTPWTFGGGTKVEIKR in the records?
96100

Which value of kon has been reported for hu1C5F12E9-V7 (antibody, human IgG4 S228P, kappa, V domains shown) VH: QVQLVQSGAEVKKPGASVKVSCKASGYTFTTYWMHWVRQAPGQGLEWIGVIDPSDSDTTYNQKFKGRATLTVDTSSSTAYMELSSLRSEDTAVYYCTRSLDGYYDYWGQGTLVTVSS VL: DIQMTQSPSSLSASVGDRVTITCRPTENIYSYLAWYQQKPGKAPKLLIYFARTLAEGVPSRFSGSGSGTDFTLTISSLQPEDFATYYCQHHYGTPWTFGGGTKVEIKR in the records?
108000
